# merged literature set: Ki with 5-hydroxytryptamine receptor 1F (Homo sapiens, UniProt P30939)
Answer in nM, number only, no unit symbol.

MOLECULE: CN1CCC(C(=O)c2cccc(NC(=O)c3ccc(F)cc3)c2O)CC1
VALUE OBSERVED: 1100
--
MOLECULE: CN1CCC(c2c[nH]c3ccc(NC(=O)c4cccc([N+](=O)[O-])c4)nc23)CC1
VALUE OBSERVED: 42
--
MOLECULE: CN1CCC(c2c[nH]c3ccc(NC(=O)c4ccccc4)nc23)CC1
VALUE OBSERVED: 7.3
--
MOLECULE: CN1CCC(C(=O)c2ccnc(NC(=O)c3ccc(F)cc3)c2)CC1
VALUE OBSERVED: 2400
--
MOLECULE: CN1CCC(c2noc3ccc(NC(=O)c4ccc(F)cc4F)cc23)CC1
VALUE OBSERVED: 12
--
MOLECULE: CN1CCC(c2coc3ccc(NC(=O)c4ccc(F)cc4)nc23)CC1
VALUE OBSERVED: 3.1
--
MOLECULE: O=C(/C=C/c1ccc(Cl)c(Cl)c1)NCCCCCN1CCC(c2c[nH]c3ccc(O)cc23)CC1
VALUE OBSERVED: 3.16
--
MOLECULE: CN1CCC(c2c[nH]c3ccc(NC(=O)c4ccco4)nc23)CC1
VALUE OBSERVED: 13
--
MOLECULE: CN1CCC(c2c[nH]c3ccc(NS(=O)(=O)c4ccc(F)cc4)nc23)CC1
VALUE OBSERVED: 27
--
MOLECULE: CN1CCC(c2coc3ccc(NC(=O)c4c(F)cccc4Cl)nc23)CC1
VALUE OBSERVED: 2.9

Entry under test: COc1ccccc1C(=O)Nc1ccc2[nH]cc(C3CCN(C)CC3)c2n1 . Its Ki was 20

Entry under test: Cc1oc2ccc(NC(=O)c3ccc(F)cc3)nc2c1CCN(C)C . Its Ki was 13.5

Entry under test: Cc1c(NC(=O)c2ccc(F)cc2)cccc1C(=O)C1CCN(C)CC1 . Its Ki was 870

----------
# merged literature set: Ki with the protein given by its sequence
Target sequence: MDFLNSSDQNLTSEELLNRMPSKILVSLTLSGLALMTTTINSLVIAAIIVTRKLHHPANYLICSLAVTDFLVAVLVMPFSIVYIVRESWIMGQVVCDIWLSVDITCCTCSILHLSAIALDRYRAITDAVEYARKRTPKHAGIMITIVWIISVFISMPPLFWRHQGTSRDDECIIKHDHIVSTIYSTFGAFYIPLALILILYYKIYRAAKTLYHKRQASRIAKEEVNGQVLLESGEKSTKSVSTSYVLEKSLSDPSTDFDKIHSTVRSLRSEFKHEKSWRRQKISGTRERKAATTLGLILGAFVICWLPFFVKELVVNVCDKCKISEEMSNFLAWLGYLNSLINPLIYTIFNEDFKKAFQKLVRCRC
Answer in nM, number only, no unit symbol.

Look over these answered cases.
COMPOUND: CN1CCC(N2CNc3ccc(NC(=O)c4ccc(F)cc4Cl)cc32)CC1
METRIC: Ki
VALUE OBSERVED: 13
--
COMPOUND: CN1CCC(C(=O)c2cccc(NC(=O)c3ccc(F)cc3)c2Cl)CC1
METRIC: Ki
VALUE OBSERVED: 1700
--
COMPOUND: CCC(=O)Nc1ccc2[nH]cc(C3CCNCC3)c2n1
METRIC: Ki
VALUE OBSERVED: 35
--
COMPOUND: CN1CCC(c2c[nH]c3ccc(NC(=O)C4CCC4)nc23)CC1
METRIC: Ki
VALUE OBSERVED: 8.7

Now let's try a different one.
Entry under test: CN1CCC(c2c[nH]c3ccc(NC(=O)c4ccccn4)nc23)CC1 . Its Ki was 6.3
